- Test system: C. difficile NR-32904 (P30)
- assay-info: Clostridium difficile inhibition analysis; also: unit not given here
- Assay type: cell-based
- measurement-parameters: Table 6, P30
assay-endpoint: Clostridium difficile inhibition

Query :: Entry CN[C@H](CC(C)C)C(=O)N[C@H]1C(=O)N[C@@H](CC(N)=O)C(=O)N[C@H]2C(=O)N[C@H]3C(=O)N[C@H](C(=O)N[C@H](C(=O)O)c4cc(O)cc(O)c4-c4cc3ccc4O)[C@H](O)c3ccc(c(Cl)c3)Oc3cc2cc(c3O[C@@H]2O[C@H](CO)[C@@H](O)[C@H](O)[C@H]2O[C@H]2C[C@](C)(N)[C@H](O)[C@H](C)O2)Oc2ccc(cc2Cl)[C@H]1O [Vancomycin, reference compound] : reported Clostridium difficile inhibition = ?
Result :: 0.5

Query :: Another compound to check: O=C(Nc1nnc(-c2ccc(C(F)(F)F)cc2)o1)c1ccc(S(=O)(=O)Nc2ccccc2)cc1 [HSGN-118]
Result :: 0.5

Query :: Follow-up item: C[C@@H]1C[C@H](C)CN(S(=O)(=O)c2ccc(C(=O)Nc3nnc(-c4ccnn4C)o3)cc2)C1 [HSGN-124]
Result :: 2

Query :: What about CN(c1ccccc1)S(=O)(=O)c1ccc(C(=O)Nc2nnc(-c3ccc(C(F)(F)F)cc3)o2)cc1 [HSGN-161] ?
Result :: 0.5
